The reported measurements were obtained from the supplement of paper PMC6555819.

- Tested on: RARg homodimer (NR concentration 270 nM)
- PROTOCOL DESCRIPTION: PBM binding z-score (relative to random genomic background probes); higher = stronger binding; sequences stand for … in GC…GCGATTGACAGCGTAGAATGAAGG
Each record's PBM binding z-score is compared with low group = under 0.8, middle group = from 0.8 up to 3, high group = 3 and over to give its class.

INSERT INTO results (query_sequence, group) VALUES
  ('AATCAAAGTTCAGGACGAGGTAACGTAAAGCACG', 'high group'),
  ('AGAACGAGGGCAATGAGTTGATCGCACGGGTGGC', 'middle group'),
  ('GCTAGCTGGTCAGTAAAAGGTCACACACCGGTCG', 'high group'),
  ('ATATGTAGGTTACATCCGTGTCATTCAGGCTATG', 'middle group'),
  ('CCTCGGAGGACAACAGGACGTCAGAGCTGCCAGA', 'middle group'),
  ('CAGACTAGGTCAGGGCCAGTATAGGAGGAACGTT', 'high group'),
  ('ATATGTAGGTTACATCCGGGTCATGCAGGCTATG', 'middle group'),
  ('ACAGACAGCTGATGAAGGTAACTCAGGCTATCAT', 'low group'),
  ('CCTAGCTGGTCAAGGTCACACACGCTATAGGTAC', 'high group'),
  ('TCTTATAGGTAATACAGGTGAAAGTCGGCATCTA', 'low group'),
  ('AGTCAAAGTACAGGACGAGGTAACGTAAAGCACG', 'middle group'),
  ('TCGAGTAGGTCACCAATGGGGCATTCAGCTTTCT', 'high group'),
  ('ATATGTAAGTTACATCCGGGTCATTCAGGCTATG', 'middle group'),
  ('CCTACTGGGCCATTCAGAGGTCATTGAGCATATG', 'high group'),
  ('GCTGCTAGGTCAGGTTGGACAGCTAACGGGTACG', 'high group'),
  ('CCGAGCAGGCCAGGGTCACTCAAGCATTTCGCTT', 'middle group'),
  ('CGTCCAAGGTCAATGCTAGGTTAGTGAAAGCATT', 'high group'),
  ('TCTTGTAGATCAGCAGGTCAAGAAAGCTGGCCAA', 'middle group'),
  ('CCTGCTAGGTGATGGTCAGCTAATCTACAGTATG', 'low group'),
  ('CCAGACAGGTGAGAAGGTTACTCAGCCTCGATTA', 'middle group'),
  ('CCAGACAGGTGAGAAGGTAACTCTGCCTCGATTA', 'low group'),
  ('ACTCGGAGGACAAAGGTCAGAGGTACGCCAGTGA', 'high group'),
  ('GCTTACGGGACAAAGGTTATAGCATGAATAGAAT', 'middle group'),
  ('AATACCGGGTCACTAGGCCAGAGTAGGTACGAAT', 'high group'),
  ('CCTACAGGGCCATTCAGAGGTCATTGATCATATG', 'high group'),
  ('TATTGTAGATCAAGCAGGTTAAGAAAGCCTGAGT', 'low group'),
  ('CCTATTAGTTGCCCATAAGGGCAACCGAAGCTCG', 'low group'),
  ('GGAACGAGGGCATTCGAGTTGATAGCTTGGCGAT', 'middle group'),
  ('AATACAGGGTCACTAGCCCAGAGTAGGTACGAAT', 'high group'),
  ('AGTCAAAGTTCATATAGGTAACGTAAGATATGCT', 'high group'),
  ('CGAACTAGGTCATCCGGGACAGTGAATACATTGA', 'high group'),
  ('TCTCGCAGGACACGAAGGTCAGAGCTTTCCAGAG', 'middle group'),
  ('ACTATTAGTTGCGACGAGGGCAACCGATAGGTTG', 'low group'),
  ('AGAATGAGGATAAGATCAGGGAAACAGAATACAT', 'low group'),
  ('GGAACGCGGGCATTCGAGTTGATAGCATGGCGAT', 'low group'),
  ('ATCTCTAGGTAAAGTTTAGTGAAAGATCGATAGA', 'low group'),
  ('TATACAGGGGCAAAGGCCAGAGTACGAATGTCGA', 'middle group'),
  ('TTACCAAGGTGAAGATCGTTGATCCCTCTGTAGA', 'low group'),
  ('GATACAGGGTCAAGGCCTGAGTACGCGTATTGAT', 'high group'),
  ('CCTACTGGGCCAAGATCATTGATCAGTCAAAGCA', 'low group'),
  ('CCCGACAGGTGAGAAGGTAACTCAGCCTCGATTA', 'low group'),
  ('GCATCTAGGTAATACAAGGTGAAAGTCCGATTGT', 'low group'),
  ('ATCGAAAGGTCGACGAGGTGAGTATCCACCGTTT', 'high group'),
  ('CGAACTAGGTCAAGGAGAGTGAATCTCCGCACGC', 'high group'),
  ('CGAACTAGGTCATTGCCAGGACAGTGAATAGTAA', 'high group'),
  ('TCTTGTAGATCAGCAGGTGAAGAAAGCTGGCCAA', 'low group'),
  ('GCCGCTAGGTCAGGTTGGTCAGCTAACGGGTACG', 'high group');
